This collection of values is drawn from the supplement of paper PMC8728848.

Here the recorded glycan array binding signal (z-score) is given for each entry.
Target: GlcNAc(b1-2)[GlcNAc(b1-4)]Man(a1-3)[GlcNAc(b1-2)Man(a1-6)]Man(b1-4)GlcNAc(b1-4)GlcNAc
Experiment: glycan array binding signal (z-score within array); higher = stronger binding
Conditions: glycan notation: IUPAC condensed, linker removed
Only a selection was taken, and the strongest signals are over-represented in it overall.
Just the number, please, no unit after it.

Completed entries (count: 3):
binder	observed-value
AT5G24760(45) (Arabidopsis thaliana), Q8LEB2 (protein) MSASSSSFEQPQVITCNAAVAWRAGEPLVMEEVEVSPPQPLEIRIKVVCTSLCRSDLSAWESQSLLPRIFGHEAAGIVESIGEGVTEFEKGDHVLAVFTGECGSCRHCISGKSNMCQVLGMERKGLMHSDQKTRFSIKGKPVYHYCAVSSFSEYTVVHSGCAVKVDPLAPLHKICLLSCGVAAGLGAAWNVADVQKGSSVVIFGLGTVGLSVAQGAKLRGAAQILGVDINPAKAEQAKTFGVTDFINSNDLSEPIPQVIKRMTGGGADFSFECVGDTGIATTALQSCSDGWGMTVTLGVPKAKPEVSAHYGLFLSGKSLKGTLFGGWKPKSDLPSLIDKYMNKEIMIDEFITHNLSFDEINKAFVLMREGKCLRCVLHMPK	1.01
HML-Native (Hypnea musciformis), P84871 (protein) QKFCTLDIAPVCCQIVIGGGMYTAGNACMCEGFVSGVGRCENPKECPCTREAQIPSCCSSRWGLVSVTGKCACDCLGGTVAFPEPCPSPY	-0.307
Clec18A (Homo sapiens) (protein) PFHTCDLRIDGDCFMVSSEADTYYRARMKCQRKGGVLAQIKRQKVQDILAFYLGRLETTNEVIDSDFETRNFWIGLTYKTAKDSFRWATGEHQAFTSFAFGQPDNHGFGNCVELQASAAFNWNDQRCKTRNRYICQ	-0.935

Could you now consider this next binder?
Quick one: glycan array binding signal (z-score) for NPA (Narcissus pseudonarcissus), C0HM45 (protein) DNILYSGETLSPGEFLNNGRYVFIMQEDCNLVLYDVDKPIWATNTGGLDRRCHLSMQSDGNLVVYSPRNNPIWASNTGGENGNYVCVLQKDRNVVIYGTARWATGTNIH ?
-0.076
